Hey, just so you know, these numbers are from ChEMBL document CHEMBL4425169.

Molecular target: Cytochrome P450 3A4 (Homo sapiens, UniProt P08684)
Sequence (P08684 whole entry): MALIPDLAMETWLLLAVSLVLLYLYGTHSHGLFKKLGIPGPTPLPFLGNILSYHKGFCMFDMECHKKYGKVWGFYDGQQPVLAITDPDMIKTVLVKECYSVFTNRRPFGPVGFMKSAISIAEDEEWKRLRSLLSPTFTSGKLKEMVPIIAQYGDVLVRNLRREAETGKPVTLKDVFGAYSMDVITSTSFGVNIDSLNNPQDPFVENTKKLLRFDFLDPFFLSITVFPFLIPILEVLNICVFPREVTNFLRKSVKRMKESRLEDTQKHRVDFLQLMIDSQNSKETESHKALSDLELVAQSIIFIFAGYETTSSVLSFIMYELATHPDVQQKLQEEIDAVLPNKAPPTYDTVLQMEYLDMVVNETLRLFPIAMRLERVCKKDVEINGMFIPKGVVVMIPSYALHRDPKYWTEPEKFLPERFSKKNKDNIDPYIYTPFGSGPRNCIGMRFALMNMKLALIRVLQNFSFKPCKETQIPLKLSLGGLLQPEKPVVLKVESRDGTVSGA
pIC50: −log10 of the molar value.

>  <structure.notation>
Cc1c([C@@H](O)CN2CCN(C[C@H](O)c3ccc4c(c3C)COC4=O)CC2)ccc2c1COC2=O

>  <pIC50>
< 4.30

$$$$

----------
Assay: Drug metabolism in human hepatocytes assessed as glucuronidation at 1 uM measured at 120 mins
Type: ADME, cell-based, Hepatocyte
Details: read-out: Drug metabolism
value.type: metabolised at 2 h, 1 µM

>  <structure.notation>
Cc1c([C@@H](O)CN2CCN(C[C@H](O)c3ccc4c(c3C)COC4=O)CC2)ccc2c1COC2=O

>  <val>
< 1%

$$$$
